Examples of proteins with documented relative apparent “Km” for LPXTG follow.
biological target: glucose dehydrogenase containing the LPETG motif
Hi! Could you send only the number? It should be in %, unit omitted.

Example entries and their recorded answers appear below.
D160S/K196S + F144L (protein) QAKPQIPKDKSKVAGYIEIPDADIKEPVYPGPATPEQLNRGVSFAEENESLDDQNISIAGHTFIDRPNYQFTNLKAAKKGSMVYLKVGNETRKYKMTSIRSVKPTDVGVLDEQKGKDKQLTLITCDDYNEKTGVWESRKIFVATEVK
100
D160S/K196S + F144L + G167E (protein) QAKPQIPKDKSKVAGYIEIPDADIKEPVYPGPATPEQLNRGVSFAEENESLDDQNISIAGHTFIDRPNYQFTNLKAAKKGSMVYLKVGNETRKYKMTSIRSVKPTDVEVLDEQKGKDKQLTLITCDDYNEKTGVWESRKIFVATEVK
166
D160S/K196S + N107W + G167E (protein) QAKPQIPKDKSKVAGYIEIPDADIKEPVYPGPATPEQLNRGVSFAEEWESLDDQNISIAGHTFIDRPNYQFTNLKAAKKGSMVYFKVGNETRKYKMTSIRSVKPTDVEVLDEQKGKDKQLTLITCDDYNEKTGVWESRKIFVATEVK
166
D160S/K196S + A61T (protein) QTKPQIPKDKSKVAGYIEIPDADIKEPVYPGPATPEQLNRGVSFAEENESLDDQNISIAGHTFIDRPNYQFTNLKAAKKGSMVYFKVGNETRKYKMTSIRSVKPTDVGVLDEQKGKDKQLTLITCDDYNEKTGVWESRKIFVATEVK
97
D160S/K196S + N107W + E106G (protein) QAKPQIPKDKSKVAGYIEIPDADIKEPVYPGPATPEQLNRGVSFAEGWESLDDQNISIAGHTFIDRPNYQFTNLKAAKKGSMVYFKVGNETRKYKMTSIRSVKPTDVGVLDEQKGKDKQLTLITCDDYNEKTGVWESRKIFVATEVK
107
D160S/K196S + N107W (protein) QAKPQIPKDKSKVAGYIEIPDADIKEPVYPGPATPEQLNRGVSFAEEWESLDDQNISIAGHTFIDRPNYQFTNLKAAKKGSMVYFKVGNETRKYKMTSIRSVKPTDVGVLDEQKGKDKQLTLITCDDYNEKTGVWESRKIFVATEVK
121

Next protein, please.
Entry D160S/K196S + E106G (protein) QAKPQIPKDKSKVAGYIEIPDADIKEPVYPGPATPEQLNRGVSFAEGNESLDDQNISIAGHTFIDRPNYQFTNLKAAKKGSMVYFKVGNETRKYKMTSIRSVKPTDVGVLDEQKGKDKQLTLITCDDYNEKTGVWESRKIFVATEVK has what relative apparent “Km” for LPXTG? 121
